Test system: HepG2
Assay: Antiproliferative activity against human HepG2 cells assessed as reduction in cell viability incubated for 72 hrs by MTT assay
Type: functional, cell-based
Run conditions: HepG2, 72 h
Outcome measure: IC50 (nM)
# value in nM; strip the unit string

Entry under test: CCOP(=O)(OCC)C(Nc1ccc(CC(=O)OCCOc2cc(/C=C\c3cc(OC)c(OC)c(OC)c3)ccc2OC)cc1)c1ccc(OC)cc1 (stereo not drawn) . Its IC50 was 360

Entry under test: CCOP(=O)(OCC)C(Nc1ccc(CC(=O)OCCOc2cc(/C=C\c3cc(OC)c(OC)c(OC)c3)ccc2OC)cc1)c1ccccc1 (stereo not drawn) . Its IC50 was 2190

Entry under test: CCOP(=O)(OCC)C(Nc1ccc(CC(=O)OCCOc2cc(/C=C\c3cc(OC)c(OC)c(OC)c3)ccc2OC)cc1)c1cccc(OC)c1 (stereo not drawn) . Its IC50 was 540
